Molecular target: A. suum respiratory chain complex II (Ascaris suum, UniProt O44074+P92506+P92507)
Construct: measured using A. suum imago complex II
Sequence (Q33862 19-645 partner): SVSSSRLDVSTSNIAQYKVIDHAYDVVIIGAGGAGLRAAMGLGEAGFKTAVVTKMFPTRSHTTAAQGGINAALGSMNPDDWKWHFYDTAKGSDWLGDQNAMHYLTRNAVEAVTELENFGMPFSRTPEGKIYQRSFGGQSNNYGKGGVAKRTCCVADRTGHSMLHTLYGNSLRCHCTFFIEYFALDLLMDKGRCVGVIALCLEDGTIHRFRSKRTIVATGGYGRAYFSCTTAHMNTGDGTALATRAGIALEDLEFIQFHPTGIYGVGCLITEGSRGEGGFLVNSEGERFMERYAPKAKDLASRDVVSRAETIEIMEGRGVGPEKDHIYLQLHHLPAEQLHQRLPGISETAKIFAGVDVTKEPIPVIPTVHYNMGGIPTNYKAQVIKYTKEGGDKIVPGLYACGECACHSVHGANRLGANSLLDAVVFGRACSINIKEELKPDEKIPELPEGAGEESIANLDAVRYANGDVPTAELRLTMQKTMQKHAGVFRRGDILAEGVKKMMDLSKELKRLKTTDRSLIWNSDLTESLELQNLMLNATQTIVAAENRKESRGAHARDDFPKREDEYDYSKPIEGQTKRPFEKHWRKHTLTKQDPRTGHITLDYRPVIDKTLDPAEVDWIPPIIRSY
Sequence (O44074 22-282): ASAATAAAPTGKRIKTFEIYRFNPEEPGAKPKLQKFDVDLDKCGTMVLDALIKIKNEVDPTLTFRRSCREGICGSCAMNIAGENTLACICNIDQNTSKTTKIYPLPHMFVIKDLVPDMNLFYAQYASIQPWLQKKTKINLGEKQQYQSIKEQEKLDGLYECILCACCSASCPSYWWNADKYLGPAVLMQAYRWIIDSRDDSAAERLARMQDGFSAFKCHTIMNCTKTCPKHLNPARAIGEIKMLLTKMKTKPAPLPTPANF
Sequence (P92506 32-188): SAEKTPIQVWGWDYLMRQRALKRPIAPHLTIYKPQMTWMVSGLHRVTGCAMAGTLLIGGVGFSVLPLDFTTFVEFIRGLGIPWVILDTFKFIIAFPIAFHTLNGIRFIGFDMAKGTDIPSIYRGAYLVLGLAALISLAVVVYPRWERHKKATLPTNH
Sequence (P92507 26-156): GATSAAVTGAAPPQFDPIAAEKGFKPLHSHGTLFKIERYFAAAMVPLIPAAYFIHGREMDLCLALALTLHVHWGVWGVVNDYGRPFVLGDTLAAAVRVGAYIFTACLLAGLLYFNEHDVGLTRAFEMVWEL
Assay: biochemical
metric-name: pIC50
Scale for pIC50: -log10 of concentration given in mol/L; no unit attached.

Look up pIC50 for this compound: Cc1cc(O)c2c(c1)O[C@@]1(C)CC[C@H]3C(C)(C)CCC[C@]34CO[C@@H]2[C@H]41 [siccanin]
8.24

---

Target: A. simplex complex II (Anisakis simplex, UniProt A0A0M3JRB2+A0A0M3KB13+A0A3P6RGD8)
Sequence (A0A0M3JRB2 24-279): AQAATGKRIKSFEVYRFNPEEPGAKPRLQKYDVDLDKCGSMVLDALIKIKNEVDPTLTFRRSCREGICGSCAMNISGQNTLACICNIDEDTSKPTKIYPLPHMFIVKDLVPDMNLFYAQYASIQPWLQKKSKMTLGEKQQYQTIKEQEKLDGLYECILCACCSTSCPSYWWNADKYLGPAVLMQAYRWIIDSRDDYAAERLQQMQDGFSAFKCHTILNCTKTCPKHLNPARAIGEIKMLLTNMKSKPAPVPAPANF
Sequence (A0A3P6RGD8 1-99): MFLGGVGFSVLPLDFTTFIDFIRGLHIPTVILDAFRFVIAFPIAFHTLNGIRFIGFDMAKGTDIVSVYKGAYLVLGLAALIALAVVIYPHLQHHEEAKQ
Sequence (A0A0M3KB13 31-157): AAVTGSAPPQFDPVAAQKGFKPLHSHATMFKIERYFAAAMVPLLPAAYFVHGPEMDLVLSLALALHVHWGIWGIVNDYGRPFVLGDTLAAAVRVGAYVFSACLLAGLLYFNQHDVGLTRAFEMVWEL
Sequence (A0A0M3KCD2 1-354 partner): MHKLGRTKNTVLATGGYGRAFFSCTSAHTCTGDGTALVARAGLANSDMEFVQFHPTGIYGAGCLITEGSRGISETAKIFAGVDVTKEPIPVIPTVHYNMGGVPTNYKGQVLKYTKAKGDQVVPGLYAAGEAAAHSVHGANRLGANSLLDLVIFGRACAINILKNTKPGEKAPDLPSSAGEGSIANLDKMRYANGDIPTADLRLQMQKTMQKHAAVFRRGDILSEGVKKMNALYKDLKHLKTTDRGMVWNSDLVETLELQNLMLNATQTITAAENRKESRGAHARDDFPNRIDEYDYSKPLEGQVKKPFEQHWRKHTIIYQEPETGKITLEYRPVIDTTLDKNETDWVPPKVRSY
Test: biochemical
metric-name: pIC50
Scale for pIC50: -log10 of concentration given in mol/L; no unit attached.

Look up pIC50 for this compound: Cc1cc(O)c2c(c1)O[C@@]1(C)CC[C@H]3C(C)(C)CCC[C@]34CO[C@@H]2[C@H]41 [siccanin]
7.95

---

System: L. donovani promastigote
Test: Proliferation by Alamar Blue method, L. donovani promastigote
Type: cell-based
Conditions: Leishmania donovani, read-out: IC50
metric-name: pIC50
Scale for pIC50: -log10 of concentration given in mol/L; no unit attached.

Look up pIC50 for this compound: Cc1cc(O)c2c(c1)O[C@@]1(C)CC[C@H]3C(C)(C)CCC[C@]34CO[C@@H]2[C@H]41 [siccanin]
6.15

---

Molecular target: L. tarentolae respiratory chain complex II
Experiment: Lineweaver-Burk inhibition pattern, L. tarentolae complex II
Type: biochemical, Leishmania tarentolae
Conditions: L. tarentolae SQR activity, for quinone (ubiquinone 1); complex II alone; read-out: Ki1
metric-name: Ki (nM)
Give the quantity in nM, number only.

For L. tarentolae respiratory chain complex II, provide Ki of "Cc1cc(O)c2c(c1)O[C@@]1(C)CC[C@H]3C(C)(C)CCC[C@]34CO[C@@H]2[C@H]41" please.
39
